# Test system: PSMA-expressing LNCAP cancer xenografts
# assay_notes: Biodistribution of ^68Ga-labeled PSMA-targeting tracers
# Type: in vivo, mice
# reported_conditions: 1 h post-injection
Consider the following molecules; for each one, report its Tissue (% ID/g): Blood.
Lab book: enter the figure in % ID/g, no units written.

// query Requested field: Tissue (% ID/g): Blood. Item: O=C([O-])CN1CCN(CC(=O)[O-])CCN(CC(=O)NC[C@H]2CC[C@H](C(=O)N[C@@H](Cc3c4ccccc4cc4ccccc34)C(=O)NCCCC[C@H](NC(=O)N[C@@H](CCC(=O)O)C(=O)O)C(=O)O)CC2)CCN(CC(=O)[O-])CC1.[68Ga+3] [^68Ga-HTK03041]
// result 1.43

// query Requested field: Tissue (% ID/g): Blood. Item: CCCCCC[C@H](NC(=O)[C@H]1CC[C@H](CNC(=O)CN2CCN(CC(=O)[O-])CCN(CC(=O)[O-])CCN(CC(=O)[O-])CC2)CC1)C(=O)NCCCC[C@H](NC(=O)N[C@@H](CCC(=O)O)C(=O)O)C(=O)O.[68Ga+3] [^68Ga-HTK03026]
// result 0.70

// query Requested field: Tissue (% ID/g): Blood. Item: O=C([O-])CN1CCN(CC(=O)[O-])CCN(CC(=O)NC[C@H]2CC[C@H](C(=O)N[C@@H](Cc3ccc4ccc5cccc6ccc3c4c56)C(=O)NCCCC[C@H](NC(=O)N[C@@H](CCC(=O)O)C(=O)O)C(=O)O)CC2)CCN(CC(=O)[O-])CC1.[68Ga+3] [^68Ga-HTK03029]
// result 3.93

// query Requested field: Tissue (% ID/g): Blood. Item: O=C([O-])CN1CCN(CC(=O)[O-])CCN(CC(=O)NC[C@H]2CC[C@H](C(=O)N[C@@H](Cc3ccc4cc5ccccc5cc4c3)C(=O)NCCCC[C@H](NC(=O)N[C@@H](CCC(=O)O)C(=O)O)C(=O)O)CC2)CCN(CC(=O)[O-])CC1.[68Ga+3] [^68Ga-HTK03027]
// result 1.56

---

Consider the following compounds; for each one, report its Tissue (% ID/g): Bone.
# Tested on: PSMA-expressing LNCAP cancer xenografts
# assay_notes: Biodistribution of ^68Ga-labeled PSMA-targeting tracers
# Assay type: in vivo, mice
# reported_conditions: 1 h post-injection

// query Requested field: Tissue (% ID/g): Bone. Item: O=C([O-])CN1CCN(CC(=O)[O-])CCN(CC(=O)NC[C@H]2CC[C@H](C(=O)N[C@@H](Cc3c4ccccc4cc4ccccc34)C(=O)NCCCC[C@H](NC(=O)N[C@@H](CCC(=O)O)C(=O)O)C(=O)O)CC2)CCN(CC(=O)[O-])CC1.[68Ga+3] [^68Ga-HTK03041]
// result 1.29 ± 0.45 % ID/g

// query Requested field: Tissue (% ID/g): Bone. Item: CCCCCC[C@H](NC(=O)[C@H]1CC[C@H](CNC(=O)CN2CCN(CC(=O)[O-])CCN(CC(=O)[O-])CCN(CC(=O)[O-])CC2)CC1)C(=O)NCCCC[C@H](NC(=O)N[C@@H](CCC(=O)O)C(=O)O)C(=O)O.[68Ga+3] [^68Ga-HTK03026]
// result 0.54 ± 0.20 % ID/g

// query Requested field: Tissue (% ID/g): Bone. Item: O=C([O-])CN1CCN(CC(=O)[O-])CCN(CC(=O)NC[C@H]2CC[C@H](C(=O)N[C@@H](Cc3ccc4ccc5cccc6ccc3c4c56)C(=O)NCCCC[C@H](NC(=O)N[C@@H](CCC(=O)O)C(=O)O)C(=O)O)CC2)CCN(CC(=O)[O-])CC1.[68Ga+3] [^68Ga-HTK03029]
// result 0.92 ± 0.14 % ID/g

// query Requested field: Tissue (% ID/g): Bone. Item: O=C([O-])CN1CCN(CC(=O)[O-])CCN(CC(=O)NC[C@H]2CC[C@H](C(=O)N[C@@H](Cc3ccc4cc5ccccc5cc4c3)C(=O)NCCCC[C@H](NC(=O)N[C@@H](CCC(=O)O)C(=O)O)C(=O)O)CC2)CCN(CC(=O)[O-])CC1.[68Ga+3] [^68Ga-HTK03027]
// result 0.70 ± 0.33 % ID/g
